Target: UniProt P34972
Sequence (P34972 whole entry): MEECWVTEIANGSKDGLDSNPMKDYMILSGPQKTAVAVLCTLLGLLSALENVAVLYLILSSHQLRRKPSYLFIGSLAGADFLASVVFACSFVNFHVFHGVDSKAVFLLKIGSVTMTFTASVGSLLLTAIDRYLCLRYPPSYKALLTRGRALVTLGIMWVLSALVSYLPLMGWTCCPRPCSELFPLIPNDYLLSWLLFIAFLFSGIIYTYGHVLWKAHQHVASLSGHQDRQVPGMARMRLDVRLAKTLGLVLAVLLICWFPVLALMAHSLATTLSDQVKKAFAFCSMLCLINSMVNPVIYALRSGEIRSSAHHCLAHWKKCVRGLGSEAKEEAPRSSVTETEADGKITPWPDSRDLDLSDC
Test: CB2 receptor binding
Details: second value of CB1/CB2 cell
Observable: Ki (nM)
Give bare numbers, in nM.

Consider the following illustrative entries.
INSERT INTO assay_data (compound, quantitative_result) VALUES
  ('C=C(C)C1CCC(C(=O)O)=CC1c1c(O)cc(C(C)(C)CCCCCC)cc1O (single isomer, unassigned; (+)) [+COOH−CBD−DMH, (+)-7-Nor-carboxy CBD DMH]', 156),
  ('C=C(C)C1CCC(CO)=CC1c1c(O)cc(CCCCC)cc1O (single isomer, unassigned; (+)) [+70H−CBD, (+)-7-Hydroxy CBD]', 101);

--- query ---
Look up Ki: C=C(C)C1CCC(C(=O)O)=CC1c1c(O)cc(CCCCC)cc1O (single isomer, unassigned)
322

====

Target: CB1 receptor (Rattus norvegicus, UniProt P20272)
Sequence (P20272 whole entry): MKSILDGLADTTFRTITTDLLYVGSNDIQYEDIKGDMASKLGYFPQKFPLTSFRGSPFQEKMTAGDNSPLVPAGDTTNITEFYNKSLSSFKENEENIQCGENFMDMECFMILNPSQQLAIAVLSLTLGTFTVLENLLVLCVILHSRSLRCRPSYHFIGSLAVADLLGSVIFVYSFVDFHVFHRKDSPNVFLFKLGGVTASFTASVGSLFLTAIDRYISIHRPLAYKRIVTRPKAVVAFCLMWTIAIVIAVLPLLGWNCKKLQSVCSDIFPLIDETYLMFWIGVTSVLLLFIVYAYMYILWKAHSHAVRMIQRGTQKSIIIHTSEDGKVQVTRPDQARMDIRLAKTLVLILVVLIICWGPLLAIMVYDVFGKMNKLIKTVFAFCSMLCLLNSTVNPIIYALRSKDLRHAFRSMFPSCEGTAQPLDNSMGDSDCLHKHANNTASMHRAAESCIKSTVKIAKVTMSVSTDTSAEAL
Assay: CB1 receptor binding
Settings: first value of CB1/CB2 cell
Please go through the items and note down their Ki.
One number for each entry, in nM.

INSERT INTO measurements (compound, observable, quantitative_result) VALUES
  ('C=C(C)C1CCC(C(=O)O)=CC1c1c(O)cc(C(C)(C)CCCCCC)cc1O (single isomer, unassigned; (+)) [+COOH−CBD−DMH, (+)-7-Nor-carboxy CBD DMH]', 'Ki', 5.8),
  ('C=C(C)C1CCC(C(=O)O)=CC1c1c(O)cc(CCCCC)cc1O (single isomer, unassigned)', 'Ki', 13.2);

--- query ---
Look up Ki: C=C(C)C1CCC(CO)=CC1c1c(O)cc(CCCCC)cc1O (single isomer, unassigned; (+)) [+70H−CBD, (+)-7-Hydroxy CBD]
5.3

====

Tested on: female Sabra mice
Assay: Hypothermia (rectal temperature)
Type: in vivo
Conditions: 20 mg/kg i.p., * = P<0.05 vs vehicle
Please go through the items and note down their Hypothermia (Δ-Body Temp.).
Answers are plain numbers, in °C.

Consider the following illustrative entries.
INSERT INTO assay_data (molecule, observable, quantitative_result) VALUES
  ('C=C(C)C1CCC(C)=CC1c1c(O)cc(C(C)(C)CCCCCC)cc1O (single isomer, unassigned; (+)) [+CBD−DMH, (+)-CBD-DMH]', 'Hypothermia (Δ-Body Temp.)', '−0.3'),
  ('C=C(C)C1CCC(C(=O)O)=CC1c1c(O)cc(CCCCC)cc1O (single isomer, unassigned)', 'Hypothermia (Δ-Body Temp.)', '−0.6'),
  ('C=C(C)C1CCC(C)=CC1c1c(O)cc(CCCCC)cc1O (single isomer, unassigned; (+)) [+CBD, (+)-CBD]', 'Hypothermia (Δ-Body Temp.)', 0.5);

For the 2 molecules below, give their Hypothermia (Δ-Body Temp.) values.
1. C=C(C)C1CCC(C(=O)O)=CC1c1c(O)cc(C(C)(C)CCCCCC)cc1O (single isomer, unassigned; (+)) [+COOH−CBD−DMH, (+)-7-Nor-carboxy CBD DMH]
2. C=C(C)C1CCC(CO)=CC1c1c(O)cc(CCCCC)cc1O (single isomer, unassigned; (+)) [+70H−CBD, (+)-7-Hydroxy CBD]

1: 0.2; 2: 0.3

====

Please go through the items and note down their Vertical Movements (% MPE).
System: female Sabra mice
Experiment: Tetrad: rearing (vertical movements) in an open field
Assay type: in vivo
Details: 20 mg/kg i.p., open field 8 min; normalized; * = P<0.05 vs vehicle
Numbers only, in % MPE.

Consider the following illustrative entries.
INSERT INTO results (molecule, quantitative_result) VALUES
  ('C=C(C)C1CCC(C)=CC1c1c(O)cc(C(C)(C)CCCCCC)cc1O (single isomer, unassigned; (+)) [+CBD−DMH, (+)-CBD-DMH]', 61),
  ('C=C(C)C1CCC(C(=O)O)=CC1c1c(O)cc(C(C)(C)CCCCCC)cc1O (single isomer, unassigned; (+)) [+COOH−CBD−DMH, (+)-7-Nor-carboxy CBD DMH]', 100),
  ('C=C(C)C1CCC(C(=O)O)=CC1c1c(O)cc(CCCCC)cc1O (single isomer, unassigned)', 71),
  ('C=C(C)C1CCC(C)=CC1c1c(O)cc(CCCCC)cc1O (single isomer, unassigned; (+)) [+CBD, (+)-CBD]', 103);

Look up Vertical Movements (% MPE): C=C(C)C1CCC(CO)=CC1c1c(O)cc(CCCCC)cc1O (single isomer, unassigned; (+)) [+70H−CBD, (+)-7-Hydroxy CBD]
81

Measured values drawn from patent US7884133B2 for this set.
